Source listed as patent US20060110401A1.

What IC50 was measured for each of the following?
# Target of assay: T1, HLA-DP401 (DPB1*0401) (human), P20036
# T1 chain 1: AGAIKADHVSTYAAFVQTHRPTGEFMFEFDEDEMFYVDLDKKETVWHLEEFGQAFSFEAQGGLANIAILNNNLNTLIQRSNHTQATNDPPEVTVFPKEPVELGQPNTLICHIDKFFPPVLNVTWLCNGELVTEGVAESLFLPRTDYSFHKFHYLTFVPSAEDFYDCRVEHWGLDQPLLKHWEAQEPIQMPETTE
# T1 chain 2: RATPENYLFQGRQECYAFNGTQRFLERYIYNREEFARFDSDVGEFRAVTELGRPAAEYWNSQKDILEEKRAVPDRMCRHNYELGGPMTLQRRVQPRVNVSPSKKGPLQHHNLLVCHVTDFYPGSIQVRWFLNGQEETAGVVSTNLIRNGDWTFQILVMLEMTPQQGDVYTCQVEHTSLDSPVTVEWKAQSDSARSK
# Assay text: competition binding
# Condition summary: chains peptide; modification not given

Example cases with answers are listed next.
{"Binder": "AAKLVALGINAVAYYRGLDVSVIPTSGDV [24N 1404-1432]", "IC50": "32.7 µM"}
{"Binder": "KPGIYRFVAPGERPSGMFD [27N 1495-1513]", "IC50": "> 100 µM"}
{"Binder": "GHAVGIFRAAVCTRGVAKAVDF [15N 1174-1195]", "IC50": "17.8 µM"}
{"Binder": "SSDLYLVTRHADVIPVRRRGDSRGSLL [13N 1127-1153]", "IC50": "> 100 µM"}
{"Binder": "VGGVYLLPRRGPRLGVRATRKTSERSQ [2C 31-57]", "IC50": "> 100 µM"}

Sure, the documented IC50 for AQGYKVLVLNPSVAATLGFGAYMSKAHGID [18N 1246-1275] is > 100 µM
